Tested on: polyamine transporter (PATr)
Test: Polyamine transport (PAT) inhibition assay in MDA-MB-231 cells
Assay type: cell-based, human
Details: spermidine uptake; read-out: Ki, spermidine uptake
measured.quantity: Ki (nM)
One number for each entry, in nM.

// fetch Ki given entry CN(C)c1cccc2c(S(=O)(=O)NCCCCCC(=O)NCCCNCCCCNCCCN)cccc12 8

* * *

System: polyamine transporter (PATr)
Assay: Radiometric polyamine transport (PAT) assay in A172 cells
Type: cell-based
Details: A172 cells; read-out: Ki, non-competitive inhibitor of PAT
Procedure: […] Cells are plated at a known density in 24 well plates in standard tissue culture medium and allowed to adhere and grow for 15–96 hours. […] Cell numbers are determined, and the plate is placed in a temperature controlled system at 37° C. […] The cells are then washed with cold medium three times, dissolved in 0.1% sodium dodecylsulfate, and the radioactivity in solution is determined by scintillation counting.
measured.quantity: Ki (nM)
Give bare numbers, in nM.

// fetch Ki given entry CN(C)CCCN1c2ccccc2CCc2ccccc21 [Compound 165, imipramine, reference compound] 41
